Molecular target: T1, TNFR1 (Homo sapiens, UniProt P19438)
T1 chain: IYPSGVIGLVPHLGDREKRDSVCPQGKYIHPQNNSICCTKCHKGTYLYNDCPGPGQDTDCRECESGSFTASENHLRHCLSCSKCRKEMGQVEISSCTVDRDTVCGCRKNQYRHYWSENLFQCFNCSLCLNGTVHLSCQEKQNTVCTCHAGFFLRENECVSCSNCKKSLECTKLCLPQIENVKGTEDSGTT
Test: yeast display SC50
Experimental endpoint: apparent Kd (screen) (nM)
API: value field is a number in nM; no unit string.

K31P (designed binder) SMEEEVEKAAKEYEKKKKEAIEKHLEKLKAPDKEAAERFLKELEEAAKEYAKDEAKTMSEEEAKRRAKKYKEKVLLSELSEEEQKEIKEAEEKLVRTILKYVEEAAK :: 3

With those in mind, consider the next binder.
Identify measured apparent Kd (screen) corresponding to A105M (designed binder) SMEEEVEKAAKEYEKKKKEAIEKHLEKLKAKDKEAAERFLKELEEAAKEYAKDEAKTMSEEEAKRRAKKYKEKVLLSELSEEEQKEIKEAEEKLVRTILKYVEEMAK
3
